- assay-notes: Dynamic light scattering (DLS) of Fluc mRNA/peptoid formulations: particle size and polydispersity
- Format: physicochemical
- condition-context: Fluc mRNA/peptoid formulation, 5:1 mass ratio peptoid:cargo
recorded-endpoint: Size PDI (size polydispersity index)
Give your answer as a number; write no unit.

CCCCCCCCCCN(CC(N)=O)C(=O)CN(CCCCCCCCCC)C(=O)CN(CCc1ccccc1)C(=O)CN(CCc1ccccc1)C(=O)CN(CCN)C(=O)CN(CCc1ccccc1)C(=O)CN(CCc1ccccc1)C(=O)CN(CCN)C(=O)CN(CCc1ccccc1)C(=O)CN(CCc1ccccc1)C(=O)CN(CCN)C(=O)CN(CCc1ccccc1)C(=O)CN(CCc1ccccc1)C(=O)CNCCN : 0.038

From here, focus on the item given below.
*Q* Given CCCCCCCCCCN(CC(N)=O)C(=O)CN(CCCCCCCCCC)C(=O)CN(CCCCCCCCCC)C(=O)CN(CCCCCCCCCC)C(=O)CN(CCc1ccccc1)C(=O)CN(CCc1ccccc1)C(=O)CN(CC1CCNCC1)C(=O)CN(CCc1ccccc1)C(=O)CN(CCc1ccccc1)C(=O)CN(CC1CCNCC1)C(=O)CN(CCc1ccccc1)C(=O)CN(CCc1ccccc1)C(=O)CNCC1CCNCC1 , respond with its Size PDI (size polydispersity index).
*A* 0.404

====

- assay-notes: Dynamic light scattering (DLS) of Fluc mRNA/peptoid formulations: particle size and polydispersity
- Format: physicochemical
- condition-context: Fluc mRNA/peptoid formulation, 5:1 mass ratio peptoid:cargo
recorded-endpoint: Size PDI (size polydispersity index)

Study these solved cases before continuing.
CCCCCCCCCCN(CC(N)=O)C(=O)CN(CCCCCCCCCC)C(=O)CN(CCc1ccccc1)C(=O)CN(CCc1ccccc1)C(=O)CN(CC1CCNCC1)C(=O)CN(CCc1ccccc1)C(=O)CN(CCc1ccccc1)C(=O)CN(CC1CCNCC1)C(=O)CN(CCc1ccccc1)C(=O)CN(CCc1ccccc1)C(=O)CNCC1CCNCC1 : 0.048
CCCCCCCCCCN(CC(N)=O)C(=O)CN(CCCCCCCCCC)C(=O)CN(CCCCCCCCCC)C(=O)CN(CCCCCCCCCC)C(=O)CN(CCCCCCCCCC)C(=O)CN(CCc1ccccc1)C(=O)CN(CCc1ccccc1)C(=O)CN(CCN)C(=O)CN(CCc1ccccc1)C(=O)CN(CCc1ccccc1)C(=O)CNCCN : 0.37

(a) CCCCCCCCCCN(CC(N)=O)C(=O)CN(CCCCCCCCCC)C(=O)CN(CCc1ccccc1)C(=O)CN(CCN)C(=O)CN(CCc1ccccc1)C(=O)CN(CCN)C(=O)CN(CCc1ccccc1)C(=O)CNCCN
(b) CCCCCCCCN(CC(N)=O)C(=O)CN(CCCCCCCC)C(=O)CN(CCc1ccccc1)C(=O)CN(CCc1ccccc1)C(=O)CN(CCN)C(=O)CN(CCc1ccccc1)C(=O)CN(CCc1ccccc1)C(=O)CN(CCN)C(=O)CN(CCc1ccccc1)C(=O)CN(CCc1ccccc1)C(=O)CNCCN
*Q* Lab note: check whether a or b has the lower measured Size PDI (size polydispersity index). Let me know the label of the one you choose.
*A* b

====

- assay-notes: mRNA encapsulation by Qubit RNA HS dye fluorescence before and after Triton X-100 lysis
- Type: physicochemical
- condition-context: Fluc mRNA/peptoid formulation, 5:1 mass ratio peptoid:cargo
recorded-endpoint: % Encapsulation (percentage of mRNA encapsulation) (%)
Give the quantity in %, number only.

CCCCCCCCCCN(CC(N)=O)C(=O)CN(CCCCCCCCCC)C(=O)CN(CCN)C(=O)CN(CCN)C(=O)CN(CCN)C(=O)CN(CCN)C(=O)CNCCN [Compound 15] : 76.9

Proceeding to the next molecule to report its % Encapsulation (percentage of mRNA encapsulation).
*Q* Give reported % Encapsulation (percentage of mRNA encapsulation) value for CCCCCCCCCCN(CC(N)=O)C(=O)CN(CCCCCCCCCC)C(=O)CN(CCc1ccccc1)C(=O)CN(CCc1ccccc1)C(=O)CN(CC1CCNCC1)C(=O)CN(CCc1ccccc1)C(=O)CN(CCc1ccccc1)C(=O)CN(CC1CCNCC1)C(=O)CN(CCc1ccccc1)C(=O)CN(CCc1ccccc1)C(=O)CNCC1CCNCC1 [Compound 33]
*A* 82.0

====

- assay-notes: mRNA encapsulation by Qubit RNA HS dye fluorescence before and after Triton X-100 lysis
- Assay type: physicochemical
- condition-context: Fluc mRNA/peptoid formulation, 5:1 mass ratio peptoid:cargo
Items are presented alongside their recorded % Encapsulation (percentage of mRNA encapsulation).
Use % as the unit, but write only the number.

*Q* Find the measured % Encapsulation (percentage of mRNA encapsulation) of CCCCCCCCCCN(CC(N)=O)C(=O)CN(CCCCCCCCCC)C(=O)CN(CCCCCCCCCC)C(=O)CN(CCCCCCCCCC)C(=O)CN(CCc1ccccc1)C(=O)CN(CCc1ccccc1)C(=O)CN(CC1CCNCC1)C(=O)CN(CCc1ccccc1)C(=O)CN(CCc1ccccc1)C(=O)CN(CC1CCNCC1)C(=O)CN(CCc1ccccc1)C(=O)CN(CCc1ccccc1)C(=O)CN(CC1CCNCC1)C(=O)CN(CCc1ccccc1)C(=O)CN(CCc1ccccc1)C(=O)CNCC1CCNCC1 [Compound 32] and report it.
*A* 50.9

*Q* Please give measured % Encapsulation (percentage of mRNA encapsulation) of the following entry: CCCCCCCCCCCCN(CC(N)=O)C(=O)CN(CCCCCCCCCCCC)C(=O)CN(CCc1ccc(OC)cc1)C(=O)CN(CCc1ccc(OC)cc1)C(=O)CN(CCN)C(=O)CN(CCc1ccc(OC)cc1)C(=O)CN(CCc1ccc(OC)cc1)C(=O)CN(CCN)C(=O)CN(CCc1ccc(OC)cc1)C(=O)CN(CCc1ccc(OC)cc1)C(=O)CNCCN [Compound 4]
*A* 99.0

*Q* Return value of % Encapsulation (percentage of mRNA encapsulation) for input CCCCCCCCCCN(CC(N)=O)C(=O)CN(CCCCCCCCCC)C(=O)CN(CCc1ccccc1)C(=O)CN(CCc1ccccc1)C(=O)CN(CCN)C(=O)CN(CCc1ccccc1)C(=O)CN(CCc1ccccc1)C(=O)CN(CCN)C(=O)CN(CCc1ccccc1)C(=O)CN(CCc1ccccc1)C(=O)CNCCN [Compound 2] , no commentary.
*A* 100.3

====

- assay-notes: Dynamic light scattering (DLS) of Fluc mRNA/peptoid formulations: particle size and polydispersity
- Assay type: physicochemical
- condition-context: Fluc mRNA/peptoid complex, 5:1 mass ratio peptoid:cargo
recorded-endpoint: Size (volume average particle size/diameter) (nm)

CCCCCCCCCCN(CC(N)=O)C(=O)CN(CCCCCCCCCC)C(=O)CN(CCc1ccccc1)C(=O)CN(CCc1ccccc1)C(=O)CN(CCCN)C(=O)CN(CCc1ccccc1)C(=O)CN(CCc1ccccc1)C(=O)CN(CCCN)C(=O)CN(CCc1ccccc1)C(=O)CN(CCc1ccccc1)C(=O)CNCCCN [Compound 30] : 282.8

(P) CCCCCCCCCCN(CC(N)=O)C(=O)CN(CCCCCCCCCC)C(=O)CN(CCN)C(=O)CN(CCN)C(=O)CN(CCN)C(=O)CN(CCN)C(=O)CNCCN [Compound 15]
(Q) CCCCCCCCCCN(CC(N)=O)C(=O)CN(CCCCCCCCCC)C(=O)CN(CCc1ccccc1)C(=O)CN(CCc1ccccc1)C(=O)CN(CCN)C(=O)CN(CCc1ccccc1)C(=O)CN(CCc1ccccc1)C(=O)CNCCN [Compound 10]
(R) CCCCCCCCCCN(CC(N)=O)C(=O)CN(CCCCCCCCCC)C(=O)CN(CCN)C(=O)CN(CCN)C(=O)CNCCN [Compound 14]
*Q* rank_up(items): orders items by reported Size (volume average particle size/diameter) in ascending numerical order. Sort and list the labels as requested.
*A* Q, R, P

====

- assay-notes: Dynamic light scattering (DLS) of Fluc mRNA/peptoid formulations: particle size and polydispersity
- Assay type: physicochemical
- condition-context: Fluc mRNA/peptoid formulation, 5:1 mass ratio peptoid:cargo
recorded-endpoint: Size PDI (size polydispersity index)

// solved cases for Size PDI (size polydispersity index) follow
CCCCCCCCCCN(CC(N)=O)C(=O)CN(CCCCCCCCCC)C(=O)CN(CCCCCCCCCC)C(=O)CN(CCCCCCCCCC)C(=O)CN(CCc1ccccc1)C(=O)CN(CCc1ccccc1)C(=O)CN(CCCN)C(=O)CN(CCc1ccccc1)C(=O)CN(CCc1ccccc1)C(=O)CN(CCCN)C(=O)CN(CCc1ccccc1)C(=O)CN(CCc1ccccc1)C(=O)CNCCCN : 0.085
CCCCCCCCCCN(CC(N)=O)C(=O)CN(CCCCCCCCCC)C(=O)CN(CCCCCCCCCC)C(=O)CN(CCCCCCCCCC)C(=O)CN(CCc1ccccc1)C(=O)CN(CCc1ccccc1)C(=O)CN(CCNC)C(=O)CN(CCc1ccccc1)C(=O)CN(CCc1ccccc1)C(=O)CN(CCNC)C(=O)CN(CCc1ccccc1)C(=O)CN(CCc1ccccc1)C(=O)CNCCNC : 0.021

(1) CCCCCCCCCCN(CC(N)=O)C(=O)CN(CCCCCCCCCC)C(=O)CN(CCN)C(=O)CN(CCN)C(=O)CN(CCN)C(=O)CN(CCN)C(=O)CNCCN
(2) CCCCCCCCCCCCN(CC(N)=O)C(=O)CN(CCCCCCCCCCCC)C(=O)CN(CCc1ccccc1)C(=O)CN(CCc1ccccc1)C(=O)CN(CCN)C(=O)CN(CCc1ccccc1)C(=O)CN(CCc1ccccc1)C(=O)CN(CCN)C(=O)CN(CCc1ccccc1)C(=O)CN(CCc1ccccc1)C(=O)CNCCN
*Q* Response body: label of entry with the larger Size PDI (size polydispersity index); valid values 1 , 2 . Record your answer as the label of the chosen record.
*A* 1
(1: 1, 2: 0.247)
